The reported measurements were obtained from patent US10882856B2.

# target under test: IDO1 (Homo sapiens)
# Sequence (P14902 whole entry): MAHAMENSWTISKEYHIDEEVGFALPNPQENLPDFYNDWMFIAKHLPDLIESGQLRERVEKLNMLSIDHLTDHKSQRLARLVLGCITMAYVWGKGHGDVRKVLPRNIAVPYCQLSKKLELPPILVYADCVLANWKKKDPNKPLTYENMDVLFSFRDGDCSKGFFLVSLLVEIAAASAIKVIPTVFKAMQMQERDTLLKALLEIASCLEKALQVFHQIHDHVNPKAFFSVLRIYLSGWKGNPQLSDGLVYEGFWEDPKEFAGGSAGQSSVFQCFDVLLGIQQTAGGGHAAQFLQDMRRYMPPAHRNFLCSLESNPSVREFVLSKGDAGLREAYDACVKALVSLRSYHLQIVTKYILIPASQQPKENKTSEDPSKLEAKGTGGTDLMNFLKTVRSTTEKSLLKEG
# test protocol: IDO1 enzymatic assay
# Format: biochemical
# Set-up: His tag (N); made in house; host or cells: E. coli
# conditions: read-out: Enzyme IC50 IDO1
value type: pIC50
pIC50 field: float, defined as -log10 of concentration (mol/L).

// query # return pIC50 for O[C@H](c1c(C2CC2)ccn2cncc12)[C@H]1CC[C@H](c2ccc(OC3COC3)cc2)CC1 (single isomer, unassigned) [Example C117a] , test system: IDO1 (Homo sapiens)
// result 7.82

// query # return pIC50 for O[C@@H](c1c(C2CC2)ccc2cncn12)[C@H]1CC[C@H](c2cccc3ccccc32)CC1 (single isomer, unassigned) [Example D135b] , test system: IDO1 (Homo sapiens)
// result 5.28

// query # return pIC50 for O[C@@H](c1c(C2CC2)ccn2cncc12)[C@H]1CC[C@H](c2ccc(OC3COC3)cc2)CC1 (single isomer, unassigned) [Example C117b] , test system: IDO1 (Homo sapiens)
// result 5.96

// query # return pIC50 for CNC(=O)c1ccc([C@H]2CC[C@H]([C@@H](O)c3c(C4CC4)ccc4cncn34)CC2)cc1 (single isomer, unassigned) [Example D124b] , test system: IDO1 (Homo sapiens)
// result 6.01

// query # return pIC50 for O[C@H](c1c(C2CC2)ccn2cncc12)[C@H]1CC[C@H](c2ccc(OC3CCCC3)cc2)CC1 (single isomer, unassigned) [Example C118a] , test system: IDO1 (Homo sapiens)
// result 7.20

// query # return pIC50 for O[C@@H](c1c(C2CC2)ccc2cncn12)[C@H]1CC[C@H](c2cc(F)cc(F)c2)CC1 (single isomer, unassigned) [Example D144b] , test system: IDO1 (Homo sapiens)
// result 5.10

// query # return pIC50 for OC(c1c(C2CC2)ccc2cncn12)C1CCC(c2ccc(F)c3ccccc23)CC1 (stereo not drawn) [Example D137] , test system: IDO1 (Homo sapiens)
// result 7.21

// query # return pIC50 for O[C@@H](c1c(C2CC2)ccn2cncc12)[C@H]1CC[C@H](c2cccc3ncccc32)CC1 (single isomer, unassigned) [Example C126b] , test system: IDO1 (Homo sapiens)
// result 5.72

// query # return pIC50 for OC(c1cc(Cl)cc2cncn12)C1CCC(c2ccc3ccccc3c2)CC1 (stereo not drawn) [Example E104] , test system: IDO1 (Homo sapiens)
// result 7.10

// query # return pIC50 for O[C@@H](c1c(C2CC2)ccc2cncn12)[C@H]1CC[C@@H](c2ccc(OC3CCOCC3)cc2)CC1 [Example D114a] , test system: IDO1 (Homo sapiens)
// result 7.77

// query # return pIC50 for OC(c1c(C2CC2)ccn2cncc12)C1CCC(c2ccc(OC3CCOCC3)cc2)CC1 (stereo not drawn) [Example C119] , test system: IDO1 (Homo sapiens)
// result 7.41

// query # return pIC50 for OC(c1c(C2CC2)ccn2cncc12)C1CCC(c2ccccc2C(F)(F)F)CC1 (stereo not drawn) [Example C116] , test system: IDO1 (Homo sapiens)
// result 6.80

// query # return pIC50 for CNC(=O)c1ccc([C@H]2CC[C@H]([C@H](O)c3c(C4CC4)ccc4cncn34)CC2)cc1 (single isomer, unassigned) [Example D124a] , test system: IDO1 (Homo sapiens)
// result 7.72

// query # return pIC50 for OC(c1c(C2CC2)ccc2cncn12)C1CCC(c2cccc(Cl)c2)CC1 (stereo not drawn) [Example D116] , test system: IDO1 (Homo sapiens)
// result 7.36

// query # return pIC50 for CN(C)C(=O)c1ccc([C@H]2CC[C@H]([C@H](O)c3c(C4CC4)ccc4cncn34)CC2)cc1 (single isomer, unassigned) [Example D125a] , test system: IDO1 (Homo sapiens)
// result 7.85

// query # return pIC50 for OC(c1c(C2CC2)ccc2cncn12)C1CCC(c2ccc(F)cc2F)CC1 (stereo not drawn) [Example D127] , test system: IDO1 (Homo sapiens)
// result 7.40

// query # return pIC50 for OC(c1c(C2CC2)ccc2cncn12)[C@H]1CC[C@H](c2ccc(OC3CCOCC3)cc2)CC1 (single isomer, unassigned) [Example D114c] , test system: IDO1 (Homo sapiens)
// result 7.77

// query # return pIC50 for OC(c1c(C2CC2)ccc2cncn12)[C@H]1CC[C@H](c2ccc(F)cc2Cl)CC1 (single isomer, unassigned) [Example D130a] , test system: IDO1 (Homo sapiens)
// result 7.52

// query # return pIC50 for COc1ccc(C2CCC(C(O)c3c(C4CC4)ccc4cncn34)CC2)cc1 (stereo not drawn) [Example D102] , test system: IDO1 (Homo sapiens)
// result 7.64

// query # return pIC50 for Oc1cccc(C2CCC(C(O)c3c(C4CC4)ccc4cncn34)CC2)c1 (stereo not drawn) [Example D142] , test system: IDO1 (Homo sapiens)
// result 7.49

// query # return pIC50 for O[C@H](c1c(C2CC2)ccc2cncn12)[C@H]1CC[C@H](c2ccc(F)c3ccccc32)CC1 (single isomer, unassigned) [Example D137a] , test system: IDO1 (Homo sapiens)
// result 7.72

// query # return pIC50 for O[C@@H](c1cc(Cl)cc2cncn12)[C@H]1CC[C@H](c2ccc3ccccc3c2)CC1 (single isomer, unassigned) [Example E104b] , test system: IDO1 (Homo sapiens)
// result 5.46

// query # return pIC50 for COCCOc1ccc(C2CCC(C(O)c3c(C4CC4)ccn4cncc34)CC2)cc1 (racemic) [Example C103] , test system: IDO1 (Homo sapiens)
// result 7.21

// query # return pIC50 for NC(=O)c1ccc([C@H]2CC[C@H]([C@H](O)c3c(C4CC4)ccc4cncn34)CC2)cc1 [Example D153] , test system: IDO1 (Homo sapiens)
// result 7.96

// query # return pIC50 for OC(c1cc(Cl)cc2cncn12)C1CCC(c2ccc(Cl)cc2)CC1 (stereo not drawn) [Example E101] , test system: IDO1 (Homo sapiens)
// result 7.21

// query # return pIC50 for Cc1cccc([C@H]2CC[C@H]([C@H](O)c3c(C4CC4)ccn4cncc34)CC2)c1 (single isomer, unassigned) [Example C111a] , test system: IDO1 (Homo sapiens)
// result 7.55
